Measured bioavailability, listed per entry for reference.
Test: Oral bioavailability in Sprague-Dawley rat at 2 mg/kg
Format: ADME, organism-based
Details: in vivo

[
  {
    "compound": "COc1ccc2c(c1)CC(c1nc3c(OC)cc(-c4cn[nH]c4)cc3c(=O)[nH]1)CO2 (stereo unspecified)",
    "bioavailability": "26%"
  },
  {
    "compound": "COc1ccc2c(c1)C[C@H](c1nc3ccc(-c4cn[nH]c4)cc3c(=O)[nH]1)CO2",
    "bioavailability": "46%"
  },
  {
    "compound": "COc1ccc2c(c1)C[C@@H](c1nc3ccc(-c4cn[nH]c4)cc3c(=O)[nH]1)CO2",
    "bioavailability": "13%"
  },
  {
    "compound": "COc1ccc2c(c1)CC(c1nc3ccc(-c4cn[nH]c4)cc3c(=O)[nH]1)CO2 (stereo unspecified)",
    "bioavailability": "66%"
  },
  {
    "compound": "COc1cccc(OCc2nc3c(OC)cc(-c4cn[nH]c4)cc3c(=O)[nH]2)c1",
    "bioavailability": "15%"
  },
  {
    "compound": "COc1ccc2c(c1)CC(c1nc3c(OCCN(C)C)cc(-c4cn[nH]c4)cc3c(=O)[nH]1)CO2 (stereo unspecified)",
    "bioavailability": "3%"
  }
]
